# assayProtocol: basal RPMI8226 mitochondrial membrane potential changes, profiling panel, cell-based, JC-1 fluorescence, 24 h, 100 nL compound (AID 1169); further: test concentration not given here
# statedConditions: RPMI8226 myeloma, JC-1 mitochondrial potential fluorescence, higher = more signal
attributeMeasured: z-score
When you answer, write just the number.

Returns the measured z-score for the input molecule. Input: O=C1N(CCS(=O)(=O)c2ccccc2)c2ccccc2[C@@H]2OC(c3ccc(OCCCO)cc3)=N[C@]12CCS(=O)(=O)c1ccccc1
-0.845

Returns the measured z-score for the input molecule. Input: CCCC[C@@H]1C[C@H]1[C@@H](NC(=O)Cc1ccccc1)c1ccc(Cl)cc1
-0.906

Returns the measured z-score for the input molecule. Input: Cc1ccccc1C(O)C1C=CC2C(=O)N(c3ccccc3)C(=O)C2N1Nc1ccccc1F (stereo unspecified)
-0.0566

Returns the measured z-score for the input molecule. Input: CC(C)(C)OC(=O)CC[C@]1(C(=O)N2CCOCC2)N=C(c2ccc(OCCCO)cc2)O[C@H]1c1ccccc1CN=[N+]=[N-]
-0.166

Returns the measured z-score for the input molecule. Input: C/C=C/CN(C(=O)C#Cc1ccccc1)[C@H](CO[Si](C)(C)C(C)(C)C)c1ccccc1
-0.522

Returns the measured z-score for the input molecule. Input: [N-]=[N+]=NCc1ccccc1C[C@]1(C(=O)NCc2ccccc2)N=C(c2ccc(OCCCO)cc2)O[C@H]1c1ccccc1CN=[N+]=[N-]
-0.899

Returns the measured z-score for the input molecule. Input: Cc1ccc(F)cc1S(=O)(=O)N[C@@H]1CCN(Cc2ccc3c(c2)OCO3)C1
0.302

Returns the measured z-score for the input molecule. Input: COc1ccc([Si](C)(C)[C@H]2[C@H](CCO)O[C@@]3(C(=O)N(Cc4ccc(N5CCOC5=O)cc4)c4ccccc43)[C@@H]2C)cc1
-0.992

Returns the measured z-score for the input molecule. Input: C=C(CCCC)/C(=C/C[C@H](OC(C)=O)c1cccc(OCCO)c1)c1cc(C(=O)OC)ccc1OC
-0.111

Returns the measured z-score for the input molecule. Input: CC(=O)c1ccc(C(O)C2C=CC3C(=O)N(C)C(=O)C3N2NC(=O)OC(C)(C)C)cc1 (stereo unspecified)
-0.539

Returns the measured z-score for the input molecule. Input: CC(C)C[C@@H]1NC(=O)C([C@@H](C)OCc2ccccc2)NC(=O)[C@@]23C(=O)N[C@@H](Cc4ccccc4)C2[C@H](C)[C@@]2(C)O[C@H]2C3/C=C/CC/C=C/CNC1=O (stereo partly specified)
-0.478

Returns the measured z-score for the input molecule. Input: COC(=O)[C@@]1(Cc2ccccc2CN=[N+]=[N-])COC(c2ccc(OCCCO)cc2)=N1
-1.01

Returns the measured z-score for the input molecule. Input: O=C1NC(=O)C2C1C=CC(C(O)c1cccc(O)c1)N2Nc1ccc(Cl)cc1Cl (stereo unspecified)
-0.39

Returns the measured z-score for the input molecule. Input: O=C(NCCO)C1=C[C@H](Oc2ccccc2I)[C@@H](O)[C@H](NCc2ccc(F)cc2)C1
0.391

Returns the measured z-score for the input molecule. Input: C=CC[C@@]12N=C(c3ccc(OCCCO)cc3)O[C@@H]1c1ccccc1N(Cc1ccccc1)C2=O
-1.25

Returns the measured z-score for the input molecule. Input: Cc1ccc(S(=O)(=O)N2[C@@H](c3ccccc3)C(C(=O)O)=CC[C@H]2c2ccc(C#N)cc2)cc1
-0.748
